System: XF498
method_summary: Antiproliferative activity against human XF498 cells after 96 hrs by MTT assay
Type: functional, cell-based
applied_conditions: XF498, 96 h
measurement_kind: pIC50
Units for pIC50: none; it is -log10 of a concentration expressed in mol/L.

COc1cc([C@@H]2c3cc4c(cc3[C@@H](O[C@@H]3O[C@@H]5CO[C@@H](C)O[C@H]5[C@H](O)[C@H]3O)[C@H]3COC(=O)[C@H]23)OCO4)cc(OC)c1O [ETOPOSIDE] = 5.46

Which measured pIC50 belongs to COc1ccc(N2C(=O)NC3(CSC4=C3C(=O)c3ncccc3C4=O)C2=O)cc1 (racemic) , tested on XF498? 6.19
